Items are presented alongside their recorded TGI.
# Tested on: SF-539 CNS
# ASSAY REMARKS: NCI tumour cell line growth inhibition, 48 h
MEASURED PROPERTY: TGI

[
  {
    "MOLECULE": "CC(C)c1cc2c(O)c(c1)Cc1cc(C(C)C)cc(c1O)Cc1cc(C(C)C)cc(c1O)Cc1cc(C(C)C)cc(c1O)Cc1cc(C(C)C)cc(c1O)Cc1cc(C(C)C)cc(c1O)C2",
    "RESULT": "> 100 µM"
  },
  {
    "MOLECULE": "O=[N+]([O-])c1ccc(-c2nc3ccccc3o2)cc1",
    "RESULT": "> 100 µM"
  },
  {
    "MOLECULE": "O=C(O)c1c(Cl)c(Cl)c(Cl)c(Cl)c1-c1c2cc(I)c(=O)c(I)c-2oc2c(I)c(O)c(I)cc12",
    "RESULT": "89.7 µM"
  },
  {
    "MOLECULE": "CN(CCc1ccccn1)C(=S)N/N=C/c1ccccn1",
    "RESULT": "0.365 µM"
  },
  {
    "MOLECULE": "Clc1ccc(CCN2CCOCC2)c(Cl)c1",
    "RESULT": "> 100 µM"
  },
  {
    "MOLECULE": "COc1cc(/C=C/C=C2\\CC(C)C/C(=C\\C=C\\c3ccc(O)c(OC)c3)C2=O)ccc1O (stereo not given)",
    "RESULT": "82.3 µM"
  },
  {
    "MOLECULE": "COc1ccc(-c2nc(N)nc(-c3cc(C)ccc3O)c2Cl)cc1",
    "RESULT": "> 100 µM"
  },
  {
    "MOLECULE": "C/C(=N\\N=C(N)N)c1sc(-c2nc(C)c(/C(C)=N/N=C(N)N)s2)nc1C",
    "RESULT": "> 100 µM"
  },
  {
    "MOLECULE": "CCCC/C(C)=N/NC(N)=S",
    "RESULT": "> 100 µM"
  },
  {
    "MOLECULE": "c1csc(-c2csc(-c3cccs3)c2)c1",
    "RESULT": "> 100 µM"
  }
]

meta.source: PubChem BioAssay (NCI)
